# Target or system: T1, BCMA (Homo sapiens (Human), UniProt Q02223 1-54, limits assumed)
# T1 sequence: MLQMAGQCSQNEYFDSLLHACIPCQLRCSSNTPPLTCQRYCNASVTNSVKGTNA
# Method notes: ELISA, format not described
# Design: unit not given here
Assay endpoint: ELISA_avg
Enter the number alone.

Binder: D-domain SEQ ID NO: 331 (designed binder) MGSWTNFKEGLAEIKRDLEALGGSEAELARFEYVIAVFEFRLQNYKGKGNPEVEALRKEAAAIRDELQAYRHN
ELISA_avg: 12.3

Query: Find the recorded ELISA_avg belonging to D-domain SEQ ID NO: 163 (designed binder) MGSWMEFEGRLHAIKRRLRALGGSEAELAAFEKEIAAFESELQAYKGKGNPEVEVLRDQAAYIRLLLQAYRHN and report it.
Reply: 7.33

Query: Can you look up the measured ELISA_avg of D-domain SEQ ID NO: 333 (designed binder) MGSWQFFKEHLASIKFWLEALGGSEAELAFFEDAIADFEYHLQNYKGKGNPEVEALRKEAAAIRDELQAYRHN for me?
Reply: 10.6

Query: // ELISA_avg lookup, key: D-domain SEQ ID NO: 93 (designed binder) MGSWEEFDRRLYAIARRLEALGGSEAELAAFEKEIAAFESELQAYKGKGNPEVEELRYQAALIRVWLQAYRHN
Reply: 8.85
